Test system: SK-OV-3
Assay: NCI tumour cell line growth inhibition, 48 h
Active and inactive are the calls of the source. Cut-off read from the data, not from the text of the source: active = GI50 up to about 1.1 µM and inactive = higher.
Give GI50 for every item shown.

Value of measured GI50 for the entry `C/C(CCN(C)C)=N\OC(=O)c1ccccc1` : > 100 µM (inactive)

Short answer for CC1(C)O[C@H]2OC(CO[Si](C)(C)C(C)(C)C)C(N=[N+]=[N-])[C@H]2O1 (stereo not given in full) : GI50 was 14 µM (inactive)

compound CC1(C)C[C@@H]2C1CCC1(C)CC2(O)CC[C@H]1O (stereo not given in full) , GI50 observed: > 100 µM (inactive)

Looking up O=c1[nH]c(=O)n(C2CC(O)C(CO)O2)cc1COCC(F)(F)F (stereo not given) , I found its GI50 recorded as > 100 µM (inactive)

// c1ccc(C(c2cccc3c2ccc2ccccc23)C(c2ccccc2)c2cccc3c2ccc2ccccc23)cc1 (stereo not given) : GI50 value = > 100 µM (inactive)
